- Tested on: A431 cells
- protocol: In vitro growth inhibition (MTT assay) in A431 cells
- Assay type: cell-based, human
- assay setup: Homo sapiens, A-431, 72 h, read-out: Inhibition of cell growth IC50
pIC50: −log10 of the molar value.
reported metric: pIC50

# compound, recorded number
records = [
    ("Nc1ccc2ncnc(Nc3cccc(Br)c3)c2c1 [Compound 1, reference compound]", 5.64),
]

====

- Test system: A431 cells
- protocol: In vitro growth inhibition (MTT assay) in A431 cells
- Assay type: cell-based, human
- assay setup: Homo sapiens, A-431; A431 cancer cell line, MTT, 72 h, mean ± SD of three experiments; read-out: Inhibition of cell growth IC50
pIC50: −log10 of the molar value.
Below is a list of entries, each paired with its recorded pIC50 value.

# molecule, pIC50
rows = [
    ("NC(CSCCCCCC(=O)Nc1ccc2ncnc(Nc3cccc(Br)c3)c2c1)C(=O)O (centres unmarked)", 5.39),
    ("CCOC(=O)CN(CCCCCC(=O)Nc1ccc2ncnc(Nc3cccc(Br)c3)c2c1)Cc1ccccn1", 4.59),
]

Data origin, for the record: paper PMC9960821
